- procedure details: OC study 1: EE and LN PK with/without ritlecitinib 200 mg QD
- Assay type: in vivo, human
- test context: female, human, plasma, oral, AUCinf, adjusted geometric mean (test), 1 Portia tablet (EE 30 μg and LN 150 μg) on Day 10 of ritlecitinib 200 mg QD × 11 days; plasma; healthy females
recorded endpoint: AUC(0-inf) (ng·h/mL)

[
  {
    "molecule": "C#C[C@]1(O)CC[C@H]2[C@@H]3CCc4cc(O)ccc4[C@H]3CC[C@@]21C [EE, ethinyl oestradiol]",
    "recorded endpoint": "AUC(0-inf)",
    "readout units": "ng·h/mL",
    "assay value": 0.656
  }
]

Entry source: paper PMC12304827
